Test system: human red blood cells (RBCs)
Method: Haemolysis assay
Assay type: cell-based
Test Context: purified human erythrocytes; assay as in Etzerodt et al. [14]
Ends that are not written are not given here.
Each entry below carries its recorded H5, concentration at which 5% haemolysis has been obtained.
Number in µM, nothing else.

> print(dat)
                                  substance  reading
1  INWKGIAAMAKKLL-NH2 [MPX, mastoparan X, reference compound]       18
2                 ANWKGIAAMAKKLL-NH2 [Ala1]      230
3                INWKGIAAMAKKLA-NH2 [Ala14]      220

**Q:** Any idea what H5, concentration at which 5% haemolysis has been obtained was measured for INWKGIALMAKKLL-NH2 [Leu8] ?
**A:** 14

* * *

System: Escherichia coli, strain INV-α
Method: Determination of minimal inhibitory concentration (MIC)
Assay type: cell-based
Test Context: LB medium, 37°C, 20 h, shaking, peptide 0.05–50 µM, absorbance 570 nm, triplicates
Ends that are not written are not given here.
Readout Kind: MIC (E. coli) (µM)
Your answer is read as µM, so omit the unit and give the number.

**Q:** Please report the recorded MIC (E. coli) for INWKGIAAMAKKLL-NH2 [MPX, mastoparan X, reference compound] .
**A:** 8

**Q:** Look at this substance and give its reported MIC (E. coli). INWKGIAAMAKKLA-NH2 [Ala14]
**A:** 33

**Q:** What MIC (E. coli) value was documented for this substance, INWKGIALMAKKLL-NH2 [Leu8] ?
**A:** 7

**Q:** Which value of MIC (E. coli) has been reported for ANWKGIAAMAKKLL-NH2 [Ala1] in the records?
**A:** 33

* * *

Tested on: human red blood cells (RBCs)
Method: Haemolysis assay
Format: cell-based
Test Context: human RBCs, 50 µM peptide
Square brackets hold non-standard residues; d marks the D form. Peptide text beside a SMILES is read from it. * marks the point of attachment. ξ: configuration not given here. ξGly(octyl) = CCCCCCCCC(N)C(=O)O; Octanoyl = CCCCCCCC(=O)*; Propionyl = CCC(=O)*
Readout Kind: % haemolysis

Below, each entry is followed by its recorded % haemolysis result.
Compound	% haemolysis
CCCCCCCC(=O)N[C@H](C(=O)N[C@@H](CC(N)=O)C(=O)N[C@@H](Cc1c[nH]c2ccccc12)C(=O)N[C@@H](CCCCN)C(=O)NCC(=O)N[C@H](C(=O)N[C@@H](C)C(=O)N[C@@H](C)C(=O)N[C@@H](CCSC)C(=O)N[C@@H](C)C(=O)N[C@@H](CCCCN)C(=O)N[C@@H](CCCCN)C(=O)N[C@@H](CC(C)C)C(=O)N[C@@H](CC(C)C)C(N)=O)[C@@H](C)CC)[C@@H](C)CC [OAMPX] (Octanoyl-INWKGIAAMAKKLL-NH2)	full haemolysis
CCCCCCCCC(NC(=O)[C@H](C)NC(=O)[C@@H](NC(=O)CNC(=O)[C@H](CCCCN)NC(=O)[C@H](Cc1c[nH]c2ccccc12)NC(=O)[C@H](CC(N)=O)NC(=O)[C@@H](N)[C@@H](C)CC)[C@@H](C)CC)C(=O)N[C@@H](CCSC)C(=O)N[C@@H](C)C(=O)N[C@@H](CCCCN)C(=O)N[C@@H](CCCCN)C(=O)N[C@@H](CC(C)C)C(=O)N[C@@H](CC(C)C)C(N)=O (some centres unmarked) [Adec8] (H-INWKGIA[ξGly(octyl)]MAKKLL-NH2)	full haemolysis
CCCCCCCCC(N)C(=O)N[C@@H](CC(N)=O)C(=O)N[C@@H](Cc1c[nH]c2ccccc12)C(=O)N[C@@H](CCCCN)C(=O)NCC(=O)N[C@H](C(=O)N[C@@H](C)C(=O)N[C@@H](C)C(=O)N[C@@H](CCSC)C(=O)N[C@@H](C)C(=O)N[C@@H](CCCCN)C(=O)N[C@@H](CCCCN)C(=O)N[C@@H](CC(C)C)C(=O)N[C@@H](CC(C)C)C(N)=O)[C@@H](C)CC (some centres unmarked) [Adec1] (H-[ξGly(octyl)]NWKGIAAMAKKLL-NH2)	full haemolysis
CCC(=O)N[C@H](C(=O)N[C@@H](CC(N)=O)C(=O)N[C@@H](Cc1c[nH]c2ccccc12)C(=O)N[C@@H](CCCCN)C(=O)NCC(=O)N[C@H](C(=O)N[C@@H](C)C(=O)N[C@@H](C)C(=O)N[C@@H](CCSC)C(=O)N[C@@H](C)C(=O)N[C@@H](CCCCN)C(=O)N[C@@H](CCCCN)C(=O)N[C@@H](CC(C)C)C(=O)N[C@@H](CC(C)C)C(N)=O)[C@@H](C)CC)[C@@H](C)CC [PAMPX] (Propionyl-INWKGIAAMAKKLL-NH2)	10%

Let us examine a further case.
**Q:** What value of % haemolysis on human red blood cells (RBCs) does CCCCCCCCC(NC(=O)[C@H](CC(C)C)NC(=O)[C@H](CCCCN)NC(=O)[C@H](CCCCN)NC(=O)[C@H](C)NC(=O)[C@H](CCSC)NC(=O)[C@H](C)NC(=O)[C@H](C)NC(=O)[C@@H](NC(=O)CNC(=O)[C@H](CCCCN)NC(=O)[C@H](Cc1c[nH]c2ccccc12)NC(=O)[C@H](CC(N)=O)NC(=O)[C@@H](N)[C@@H](C)CC)[C@@H](C)CC)C(N)=O (some centres unmarked) [Adec14] (H-INWKGIAAMAKKL[ξGly(octyl)]-NH2) have?
**A:** full haemolysis

* * *

System: human red blood cells (RBCs)
Method: Haemolysis assay
Assay type: cell-based
Test Context: purified human erythrocytes; assay as in Etzerodt et al. [14]
Peptide text beside a SMILES is read from it. * marks the point of attachment. Octanoyl = CCCCCCCC(=O)*
Readout Kind: H5, concentration at which 5% haemolysis has been obtained (µM)
Your answer is read as µM, so omit the unit and give the number.

**Q:** Please report the recorded H5, concentration at which 5% haemolysis has been obtained for CCCCCCCC(=O)N[C@H](C(=O)N[C@@H](CC(N)=O)C(=O)N[C@@H](Cc1c[nH]c2ccccc12)C(=O)N[C@@H](CCCCN)C(=O)NCC(=O)N[C@H](C(=O)N[C@@H](C)C(=O)N[C@@H](C)C(=O)N[C@@H](CCSC)C(=O)N[C@@H](C)C(=O)N[C@@H](CCCCN)C(=O)N[C@@H](CCCCN)C(=O)N[C@@H](CC(C)C)C(=O)N[C@@H](CC(C)C)C(N)=O)[C@@H](C)CC)[C@@H](C)CC [OAMPX] (Octanoyl-INWKGIAAMAKKLL-NH2) .
**A:** 1.1

Hey, just so you know, these numbers are from paper PMC3951324.
